- tgt: T1, GFP-9S library array, motif 4 ND N98S;D124E (synthetic construct, N98S;D124E)
- T1 chain: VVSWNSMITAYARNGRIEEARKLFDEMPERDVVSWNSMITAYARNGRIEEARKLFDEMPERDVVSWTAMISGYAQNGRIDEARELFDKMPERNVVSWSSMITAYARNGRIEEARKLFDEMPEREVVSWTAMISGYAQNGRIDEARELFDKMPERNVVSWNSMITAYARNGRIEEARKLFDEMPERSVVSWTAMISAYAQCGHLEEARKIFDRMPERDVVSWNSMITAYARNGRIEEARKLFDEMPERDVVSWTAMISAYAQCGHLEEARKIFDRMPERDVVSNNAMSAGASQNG
- assay-summary: high-throughput RNA pulldown from lysate on Ni-NTA beads; HRP: 50 mM Tris pH 8, 150 mM NaCl, 1 mM beta-mercaptoethanol, 50 ug/ml BSA, 3 ug/ml yeast RNA, 0.5% heparin; ITC and FP: Tris pH 8, 200 mM KCl, 5% glycerol; MST: 50 mM Tris pH 8, 200 mM NaCl, 1 mM DTT, BSA, heparin, 0.05% Tween 20
- measurement-setup: tags: N-terminal His-eGFP; label: 5' IRDye 800CW

# binder, units-text, Kd
data = [
    ("AUUAUACGUGA (ssRNA) [IR-rpoA-U]", "nM", 201),
    ("AUUAAACGUGA (ssRNA) [IR-rpoA-A]", "nM", 70.5),
]
